Hi there, I'd appreciate the recorded MIC for every entry that follows.
# Tested on: E. coli mutant CA80012
# assay: Minimum inhibitory concentration (cross resistance)
# Type: cell-based
# condition info: Escherichia coli, read-out: minimum inhibitory concentration (MIC)
Numbers only, in mg/L.

Please review the following examples before continuing.
INSERT INTO results (compound, readout_name, reported_result) VALUES
  ('C[C@@H]1CN(c2c(F)c(N)c3c(=O)c(C(=O)O)cn(C4CC4)c3c2F)C[C@H](C)N1', 'MIC', 40),
  ('CCn1cc(C(=O)O)c(=O)c2cc(F)c(N3CCNCC3)cc21', 'MIC', 15);

Hey, can you go through the list below and give me MIC for every item?
1. CCn1cc(C(=O)O)c(=O)c2ccc(C)nc21
2. O=C(O)c1cn(C2CC2)c2cc(N3CCNCC3)c(F)cc2c1=O
3. CCn1cc(C(=O)O)c(=O)c2cc(F)c(N3CCNC(C)C3)c(F)c21 (centres unmarked)

[100, 0.1, 1.5]

----------
# System: E. coli mutant CA8002
# assay: Minimum inhibitory concentration (cross resistance)
# Type: cell-based
# condition info: Escherichia coli; strain CA8002
Hi there, I'd appreciate the recorded MIC for every entry that follows.
Answers are plain numbers, in µg/mL.

INSERT INTO measurements (compound, readout_name, reported_result) VALUES
  ('CCn1cc(C(=O)O)c(=O)c2cc(F)c(N3CCNC(C)C3)c(F)c21 (centres unmarked) [Lomefloxacin]', 'MIC', 1.5),
  ('CCn1cc(C(=O)O)c(=O)c2cc(F)c(N3CCNCC3)cc21 [Norfloxacin]', 'MIC', 15),
  ('C[C@@H]1CN(c2c(F)c(N)c3c(=O)c(C(=O)O)cn(C4CC4)c3c2F)C[C@H](C)N1 [Sparfloxacin]', 'MIC', 20);

# evaluate next
Entry CCn1cc(C(=O)O)c(=O)c2ccc(C)nc21 [Nalidixic acid] has what MIC? 150

----------
Hi there, I'd appreciate the recorded MIC for every entry that follows.
# Test system: E. coli ET8000
# assay: Minimum inhibitory concentration (cross resistance)
# Type: cell-based
# condition info: Escherichia coli; strain ET8000
Answers are plain numbers, in µg/mL.

INSERT INTO assay_data (substance_smiles, assayed_target, endpoint_unit, reported_result) VALUES
  ('C[C@@H]1CN(c2c(F)c(N)c3c(=O)c(C(=O)O)cn(C4CC4)c3c2F)C[C@H](C)N1', 'E. coli ET8000', 'µg/mL', 20),
  ('CCn1cc(C(=O)O)c(=O)c2ccc(C)nc21', 'E. coli ET8000', 'µg/mL', 100),
  ('O=C(O)c1cn(C2CC2)c2cc(N3CCNCC3)c(F)cc2c1=O', 'E. coli ET8000', 'µg/mL', 0.5);

Entry CCn1cc(C(=O)O)c(=O)c2cc(F)c(N3CCNCC3)cc21 has what MIC? 50

----------
# System: E. coli DH5a
# assay: Minimum inhibitory concentration (cross resistance)
# Format: cell-based
# condition info: Escherichia coli; strain DH5a
readout name: MIC (µg/mL)
Answers are plain numbers, in µg/mL.

Please review the following examples before continuing.
INSERT INTO results (compound, reported_result) VALUES
  ('O=C(O)c1cn(C2CC2)c2cc(N3CCNCC3)c(F)cc2c1=O', 0.1),
  ('CCn1cc(C(=O)O)c(=O)c2cc(F)c(N3CCNCC3)cc21', 20),
  ('CCn1cc(C(=O)O)c(=O)c2ccc(C)nc21', 50);

Hey, can you go through the list below and give me MIC for every item?
1. C[C@@H]1CN(c2c(F)c(N)c3c(=O)c(C(=O)O)cn(C4CC4)c3c2F)C[C@H](C)N1
2. CCn1cc(C(=O)O)c(=O)c2cc(F)c(N3CCNC(C)C3)c(F)c21 (centres unmarked)

1. 10
2. 0.5
